Cited source for all entries: ChEMBL document CHEMBL5154934

Quick reference for selectivity ratio among some compounds
experiment: Safety index, ratio of CC50 for cytotoxicity against Vero E6 cells to EC50 for antiviral activity against SARS-CoV-2 Wuhan-Hu-1; assay type: toxicity, cell-based, Vero C1008; conditions: monkey, read-out: Ratio CC50/EC50
Respond numerically, and do not add a unit to the figure.

Briefly, selectivity ratio measured for CC(C)C[C@H](NC(=O)OC1CC2(CCN(C(=O)OC(C)(C)C)CC2)C1)C(=O)N[C@H](C=O)C[C@H]1CCNC1=O : 1250

CC(C)C[C@H](NC(=O)OC1CC2(CCN(C(=O)OC(C)(C)C)CC2)C1)C(=O)N[C@@H](C[C@H]1CCNC1=O)C(=O)C(O)S(=O)(=O)O (some centres not stated) yielded selectivity ratio of 1250
